The following compounds are listed with their measured pIC50 values.
# SYSTEM NAME: Sodium/potassium-transporting ATPase subunit alpha-1 (Canis lupus familiaris, UniProt P50997)
# TEST SUMMARY: Inhibition of [3H]ouabain binding to Digitalis receptor in dog heart microsomes
pIC50: −log10 of the molar value.

[
  {
    "COMPOUND": "C[C@@H]1O[C@@H](O[C@H]2CC[C@@]3(C)[C@H](CC[C@@H]4[C@@H]3CC[C@]3(C)[C@@H](CCC(=O)O)CC[C@]43O)C2)[C@H](O)[C@H](O)[C@H]1O",
    "pIC50": 6.64
  },
  {
    "COMPOUND": "C[C@H]1O[C@@H](O[C@H]2[C@@H](O)C[C@H](O[C@H]3[C@@H](O)C[C@H](O[C@H]4CC[C@@]5(C)[C@H](CC[C@@H]6[C@@H]5CC[C@]5(C)[C@@H](C7=CC(=O)OC7)CC[C@]65O)C4)O[C@@H]3C)O[C@@H]2C)C[C@H](O)[C@@H]1O",
    "pIC50": 8.10
  },
  {
    "COMPOUND": "C[C@@H]1O[C@@H](O[C@H]2CC[C@@]3(C)[C@H](CC[C@@H]4[C@@H]3CC[C@]3(C)[C@H](C(O)C[N+](=O)[O-])CC[C@]43O)C2)[C@H](O)[C@H](O)[C@H]1O (stereo not given in full)",
    "pIC50": 5.33
  },
  {
    "COMPOUND": "COC(C[N+](=O)[O-])[C@H]1CC[C@]2(O)[C@@H]3CC[C@@H]4C[C@@H](O[C@@H]5O[C@@H](C)[C@H](O)[C@@H](O)[C@H]5O)CC[C@]4(C)[C@H]3CC[C@]12C (stereo not given in full)",
    "pIC50": 7.52
  },
  {
    "COMPOUND": "C[C@@H]1O[C@@H](O[C@H]2CC[C@@]3(C)[C@H](CC[C@@H]4[C@@H]3CC[C@]3(C)[C@@H](/C=C/C(=O)O)CC[C@]43O)C2)[C@H](O)[C@H](O)[C@H]1O",
    "pIC50": 7.89
  }
]

---

# SYSTEM NAME: Sodium/potassium-transporting ATPase subunit alpha-1 (Canis lupus familiaris, UniProt P50997)
# TEST SUMMARY: Inhibition of [3H]ouabain binding to Digitalis receptor in dog heart microsomes
pIC50: −log10 of the molar value.

[
  {
    "COMPOUND": "C[C@@H]1O[C@@H](O[C@H]2CC[C@@]3(C)[C@H](CC[C@@H]4[C@@H]3CC[C@]3(C)[C@@H]5CC[C@]43OC5)C2)[C@H](O)[C@H](O)[C@H]1O",
    "pIC50": 5.66
  },
  {
    "COMPOUND": "C[C@@H]1O[C@@H](O[C@H]2CC[C@@]3(C)[C@H](CC[C@@H]4[C@@H]3CC[C@]3(C)[C@@H](CC[N+](=O)[O-])CC[C@]43O)C2)[C@H](O)[C@H](O)[C@H]1O",
    "pIC50": 7.34
  },
  {
    "COMPOUND": "C[C@@H]1O[C@@H](O[C@H]2CC[C@@]3(C)[C@H](CC[C@@H]4[C@@H]3CC[C@]3(C)[C@@H](C(O)CN)CC[C@]43O)C2)[C@H](O)[C@H](O)[C@H]1O (stereo partly specified)",
    "pIC50": 5.49
  },
  {
    "COMPOUND": "CC1OC(O[C@H]2CC[C@@]3(C)[C@H](CC[C@@H]4[C@@H]3CC[C@]3(C)[C@@H](CCN)CC[C@]43O)C2)C(O)C(O)C1O (stereo partly specified)",
    "pIC50": 5.72
  },
  {
    "COMPOUND": "C[C@@H]1O[C@@H](O[C@H]2CC[C@@]3(C)[C@H](CC[C@@H]4[C@@H]3CC[C@]3(C)[C@@H](CCO)CC[C@]43O)C2)[C@H](O)[C@H](O)[C@H]1O",
    "pIC50": 6.18
  },
  {
    "COMPOUND": "C[C@@H]1O[C@@H](O[C@H]2CC[C@@]3(C)[C@H](CC[C@@H]4[C@@H]3CC[C@]3(C)[C@@H](/C=C/[N+](=O)[O-])CC[C@]43O)C2)[C@H](O)[C@H](O)[C@H]1O",
    "pIC50": 8.08
  }
]
